The following binders are listed with their measured ELISA O.D. values.
# system-name: T1, human CD200R1 recombinant protein (construct not stated) (human, UniProt Q8TD46 27-266, limits assumed)
# T1 sequence (looked up): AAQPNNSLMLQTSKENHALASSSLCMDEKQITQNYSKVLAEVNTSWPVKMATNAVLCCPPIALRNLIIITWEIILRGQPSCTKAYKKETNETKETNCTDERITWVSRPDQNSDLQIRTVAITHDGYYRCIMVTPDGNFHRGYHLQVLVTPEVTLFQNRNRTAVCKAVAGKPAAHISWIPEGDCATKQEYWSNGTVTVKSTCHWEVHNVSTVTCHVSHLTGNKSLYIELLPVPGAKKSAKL
# method: hybridoma ELISA on human CD200R1
parameter-measured: ELISA O.D.

| binder | recorded-measurement |
| --- | --- |
| 3G4 (hybridoma clone) (antibody, V domains shown) VH: QVQLQQPGAELVKPGAPVKLSCKASGFTLTSYWMNWVKQRPGRGLEWIGRIDPSDSETHYNQKFKDKATLTVDKSSSTAYIQLTSLTSEDSAVYYCARSGGWLPGFAYWGQGTLVTVSA VL: ENVLTQSPAIMSASPGEKVTMTCSARSSVSYMHWYQQKSRTSPKLWIYDTSKLASGVPGRFSGSGSGNSYSLTISSMEAEDVATYYCFQGSGDPLMYTFGGGTKLEIK | ≥ 1.5 O.D. |
| 6C3 (hybridoma clone) (antibody, V domains shown) VH: QVQLQQPGAELVRPGASVKLSCKASAYTFTSYWMNWVKQRPEQGLEWIGRIDPYDSETHYNQKFKDKAILTVDKSSSTAYMQLSSLTSEDSAVYYCARVDGNHLFDYWGQGTTLTVSS VL: DIKMTQSPSSMYASLGERVTITCKASQDINSYLSWFQQKPGKSPKTLIYRANRLVDGVPSRFSGSGSGQDYSLTISSLEYEDMGIYYCLQYDEFPYTFGGGTKLEIK | ≥ 1.5 O.D. |
| 5E9 (hybridoma clone) (antibody, V domains shown) VH: QVQLQQSGAELARPGASVKLSCKASGYTFTSYWMQWVKQRPGQGLEWIGAIYPGDGDTRYTQKFKGKATLTADKSSSTAYMQLRSLASEDSAVFYCARGGVTTLVPYFFDYWGQGATLTVSS VL: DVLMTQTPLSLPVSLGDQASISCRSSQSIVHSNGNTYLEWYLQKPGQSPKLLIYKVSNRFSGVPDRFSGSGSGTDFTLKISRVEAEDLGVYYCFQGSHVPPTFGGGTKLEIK | ≥ 1.5 O.D. |
